test system: SR leukemia
Possible outcomes: yes (active), no (inactive)

COMPOUND: CCN(Cc1cccnc1)c1ccc(CO)c(Cl)c1
ASSIGNED_CATEGORY: no

COMPOUND: Nc1ncc(-c2ccc3ncnc(N4CCc5ccc(Cl)cc54)c3c2)cn1
ASSIGNED_CATEGORY: no

COMPOUND: CC12OC(CC(O)C1O)n1c3ccccc3c3c4c(c5c6ccccc6n2c5c31)C(=O)N(CCN1CCCC1)C4=O (stereo not drawn)
ASSIGNED_CATEGORY: yes

COMPOUND: COc1ccc(O)c2c(=O)c3c(OC)cc4c(c3oc12)[C@@H]1C=CO[C@@H]1O4
ASSIGNED_CATEGORY: yes

COMPOUND: OCCCc1n(Cc2ccc3ccccc3c2)c2ccccc2[n+]1Cc1ccc2ccccc2c1
ASSIGNED_CATEGORY: no

COMPOUND: O=C1Nc2ccccc2/C1=C/C(=O)c1ccc(N2CCCC2)cc1
ASSIGNED_CATEGORY: yes

COMPOUND: COc1cc2c3c(n(CCCn4ccnc4)c(=O)c2cc1OC)-c1cc2c(cc1C3=O)OCO2
ASSIGNED_CATEGORY: yes

COMPOUND: CCOC(=O)c1ccc2c(c1)nc(-c1ccc(Cl)cc1)n2-c1cc(C(C)(C)C)[nH]n1
ASSIGNED_CATEGORY: no

Data provenance is PubChem BioAssay (NCI).
